Provenance of the data: patent US20090048164A1

Please respond with reported Fold/wt for every item in the list.
# TESTED SYSTEM: T1, Bcl-w
# T1 chain: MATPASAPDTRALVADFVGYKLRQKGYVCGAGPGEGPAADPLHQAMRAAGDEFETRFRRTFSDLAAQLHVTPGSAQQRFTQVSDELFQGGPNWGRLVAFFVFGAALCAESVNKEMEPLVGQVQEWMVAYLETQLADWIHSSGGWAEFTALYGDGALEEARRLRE
# METHOD NOTES: competition phage ELISA
Unit fold implied. Number only.

[Q] Endpoint output: Fold/wt of QEDAIRNIARHLAQVGDSMDRSIPPG (M13 phage display: FLAG-26mer-GGGT-g3(249-406)) [Bid BH3 I4A, phage-displayed] . Value?
[A] 1

[Q] Queued: QEDIIRNIARHLAQVGDSMDASIPPG (M13 phage display: FLAG-26mer-GGGT-g3(249-406)) [Bid BH3 R21A, phage-displayed]
[A] 2

[Q] Then what about the binder AEDIIRNIARHLAQVGDSMDRSIPPG (M13 phage display: FLAG-26mer-GGGT-g3(249-406)) [Bid BH3 Q1A, phage-displayed] ?
[A] 1

[Q] Next: QEDIIRNAARHLAQVGDSMDRSIPPG (M13 phage display: FLAG-26mer-GGGT-g3(249-406)) [Bid BH3 I8A, phage-displayed]
[A] 8
